TESTED ON: human CMKLR1 (Homo sapiens, UniProt Q99788)
Construct: host or cells: HEK293A (Invitrogen), stably expressing human Gα15
ASSAY TEXT: Ca2+ mobilization (CellLux imaging) agonist assay in HEK293A cells expressing CMKLR1 and Gα15
Type: cell-based
EXPERIMENTAL CONTEXT: Ca2+ mobilization, CMKLR1; decimal comma
Square brackets hold non-standard residues; d marks the D form. Peptide text beside a SMILES is read from it.
MEASURE: max response

Here are 2 compounds together with their reported answers.
COMPOUND	max response
CC(C)C[C@H](NC(=O)[C@@H](N)Cc1ccc(O)cc1)C(=O)N1CCC[C@H]1C(=O)NCC(=O)N[C@@H](CCC(N)=O)C(=O)N[C@@H](Cc1ccccc1)C(=O)N[C@H](Cc1ccccc1)C(=O)N[C@@H](Cc1ccccc1)C(=O)N[C@@H](CO)C(N)=O [compound 4] (H-YLPGQF[dF]FS-NH2; N-terminus assumed)	1,66 DF/F0
CC(C)C[C@@H](NC(=O)[C@H](CCCNC(=N)N)NC(=O)[C@@H](N)Cc1ccc(O)cc1)C(=O)NCC(=O)N[C@@H](CCC(N)=O)C(=O)N[C@@H](Cc1ccc(O)cc1)C(=O)N[C@H](Cc1c[nH]c2ccccc12)C(=O)N[C@H](CC(=O)O)C(=O)N[C@H](Cc1ccccc1)C(=O)O [compound 129] (H-YR[dL]GQY[dW][dD][dF]-OH; N-terminus assumed)	1,1 DF/F0

Continue with the compound presented below.
INPUT: What max response value was documented for this compound, CC(C)C[C@H](NC(=O)[C@@H](N)Cc1ccc(O)cc1)C(=O)N1CCC[C@H]1C(=O)NCC(=O)N[C@@H](CCC(N)=O)C(=O)N[C@@H](Cc1ccc(O)cc1)C(=O)N[C@H](Cc1c[nH]c2ccccc12)C(=O)N1CCC[C@H]1C(=O)N[C@H](Cc1ccccc1)C(=O)O [compound 126] (H-YLPGQY[dW]P[dF]-OH; N-terminus assumed) ?
OUTPUT: 1,33 DF/F0

* * *

TESTED ON: human CMKLR1 (Homo sapiens)
Construct: host or cells: HEK293A (Invitrogen), stably expressing human Gα15
Sequence (Q99788 1-373): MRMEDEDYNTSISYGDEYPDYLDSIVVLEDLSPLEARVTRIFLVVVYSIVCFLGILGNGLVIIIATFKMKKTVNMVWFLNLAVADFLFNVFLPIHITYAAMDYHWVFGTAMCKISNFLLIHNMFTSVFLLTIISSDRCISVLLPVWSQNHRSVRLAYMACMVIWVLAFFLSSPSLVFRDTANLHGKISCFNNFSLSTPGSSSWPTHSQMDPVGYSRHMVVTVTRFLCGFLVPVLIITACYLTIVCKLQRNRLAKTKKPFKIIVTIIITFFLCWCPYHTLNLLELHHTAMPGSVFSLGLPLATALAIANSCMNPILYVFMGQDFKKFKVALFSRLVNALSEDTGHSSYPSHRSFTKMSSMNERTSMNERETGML
ASSAY TEXT: Ca2+ mobilization (CellLux imaging) agonist assay in HEK293A cells expressing CMKLR1 and Gα15
Type: cell-based
EXPERIMENTAL CONTEXT: Ca2+ mobilization, CMKLR1; decimal comma; NR where no EC50 is given; read-out: EC50
Square brackets hold non-standard residues; d marks the D form. Peptide text beside a SMILES is read from it.
MEASURE: pEC50
Keep it numeric: pEC50 is minus log10 of the concentration in mol/L.

Below: 2 compounds and their reported pEC50.
COMPOUND	MEASURE	NUMERIC READOUT
CC(C)C[C@H](NC(=O)[C@@H](N)Cc1ccc(O)cc1)C(=O)N1CCC[C@H]1C(=O)NCC(=O)N[C@@H](CCC(N)=O)C(=O)N[C@@H](Cc1ccccc1)C(=O)N[C@H](Cc1ccc(O)cc1)C(=O)N[C@@H](Cc1ccccc1)C(=O)N[C@@H](CO)C(=O)O [compound 57] (H-YLPGQF[dY]FS-OH; N-terminus assumed)	pEC50	6.93
C[C@H](NC(=O)[C@H](Cc1ccc(O)cc1)NC(=O)[C@H](CCC(N)=O)NC(=O)CNC(=O)[C@@H]1CCCN1C(=O)[C@H](CCC(=O)O)NC(=O)[C@@H](N)Cc1ccc(O)cc1)C(=O)N[C@@H](Cc1ccccc1)C(=O)N[C@H](CO)C(=O)O [compound 94] (H-YEPGQYAF[dS]-OH; N-terminus assumed)	pEC50	7.12

Here is the next item to consider.
INPUT: Requested read-out: pEC50. Entry: C[C@H](NC(=O)[C@H](Cc1ccccc1)NC(=O)[C@H](C)NC(=O)[C@H](Cc1ccccc1)NC(=O)[C@@H](N)CCC(N)=O)C(=O)N[C@@H](Cc1ccccc1)C(=O)N[C@@H](C)C(=O)N[C@@H](Cc1ccccc1)C(=O)N[C@H](CO)C(=O)O [compound 115] (H-QFAFAFAF[dS]-OH; N-terminus assumed)
OUTPUT: 5.60

* * *

TESTED ON: human CMKLR1 (Homo sapiens)
Construct: host or cells: HEK293A (Invitrogen), stably expressing human Gα15
ASSAY TEXT: Ca2+ mobilization (CellLux imaging) agonist assay in HEK293A cells expressing CMKLR1 and Gα15
Format: cell-based
EXPERIMENTAL CONTEXT: Ca2+ mobilization, CMKLR1; decimal comma
Square brackets hold non-standard residues; d marks the D form. Peptide text beside a SMILES is read from it.
Below, each of the compounds is paired with its reported max response value.

COMPOUND	max response
CC(C)C[C@H](NC(=O)[C@H](Cc1ccc(O)cc1)NC(=O)[C@@H](Cc1ccccc1)NC(=O)[C@@H]1CCCN1C(=O)[C@H]1CCCN1C(=O)[C@@H]1CCCN1C(=O)[C@H](CC(C)C)NC(=O)[C@@H](N)Cc1ccc(O)cc1)C(=O)N1CCC[C@H]1C(=O)O [compound 152] (H-YLP[dP]P[dF]YLP-OH; N-terminus assumed)	1,7 DF/F0
CC(C)C[C@H](NC(=O)[C@@H](N)Cc1ccc(O)cc1)C(=O)N1CCC[C@H]1C(=O)N1CCC[C@@H]1C(=O)N1CCC[C@H]1C(=O)N[C@@H](Cc1ccc(O)cc1)C(=O)N[C@@H](C)C(=O)N[C@@H](Cc1ccccc1)C(=O)N[C@H](Cc1ccccc1)C(=O)O [compound 130] (H-YLP[dP]PYAF[dF]-OH; N-terminus assumed)	1,72 DF/F0
C[C@H](NC(=O)[C@H](Cc1ccc(O)cc1)NC(=O)[C@H](CCC(N)=O)NC(=O)CNC(=O)[C@@H]1CCCN1C(=O)[C@@H](Cc1ccc(O)cc1)NC(=O)[C@@H](N)Cc1ccc(O)cc1)C(=O)N[C@@H](Cc1ccccc1)C(=O)N[C@H](CO)C(=O)O [compound 88] (H-Y[dY]PGQYAF[dS]-OH; N-terminus assumed)	1,51 DF/F0
CC(C)[C@H](NC(=O)[C@@H](Cc1ccc(O)cc1)NC(=O)[C@H](CO)NC(=O)[C@@H]1CCCN1)C(=O)N1CCC[C@H]1C(=O)NCC(=O)N[C@@H](CCC(N)=O)C(=O)N[C@@H](Cc1ccc(O)cc1)C(=O)N[C@@H](C)C(=O)O [compound 107] (H-PS[dY]VPGQYA-OH; N-terminus assumed)	1,97 DF/F0
CC(C)C[C@H](NC(=O)[C@H](N)Cc1ccccc1)C(=O)N1CCC[C@H]1C(=O)NCC(=O)N[C@@H](CCC(N)=O)C(=O)N[C@@H](Cc1ccc(O)cc1)C(=O)N[C@@H](C)C(=O)N[C@@H](Cc1ccccc1)C(=O)N[C@@H](Cc1ccccc1)C(=O)O [compound 55] (H-[dF]LPGQYAFF-OH; N-terminus assumed)	0,73 DF/F0
NC(=O)CC[C@H](NC(=O)CNC(=O)[C@@H]1CCCN1C(=O)[C@@H](Cc1ccccc1)NC(=O)[C@H](N)Cc1ccccc1)C(=O)N[C@@H](Cc1ccccc1)C(=O)NCC(=O)N[C@H](Cc1ccc(O)cc1)C(=O)N[C@H](CC(N)=O)C(N)=O [compound 15] (H-[dF][dF]PGQFG[dY][dN]-NH2; N-terminus assumed)	1,47 DF/F0

INPUT: Entry CC(C)C[C@H](NC(=O)[C@H](N)Cc1ccc(O)cc1)C(=O)N1CCC[C@@H]1C(=O)NCC(=O)N[C@@H](CCC(N)=O)C(=O)N[C@@H](Cc1ccc(O)cc1)C(=O)N[C@@H](C)C(=O)N[C@@H](Cc1ccccc1)C(=O)N[C@@H](CO)C(=O)O [compound 104] (H-[dY]L[dP]GQYAFS-OH; N-terminus assumed) has what max response?
OUTPUT: 1,73 DF/F0

INPUT: Please do the same for CC(C)C[C@H](NC(=O)[C@@H](N)Cc1ccc(O)cc1)C(=O)N1CCC[C@H]1C(=O)NCC(=O)N[C@@H](CCC(N)=O)C(=O)N[C@@H](Cc1ccc(O)cc1)C(=O)N[C@@H](C)C(=O)N[C@@H](Cc1ccc(O)cc1)C(=O)N[C@H](CO)C(=O)O [compound 87] (H-YLPGQYAY[dS]-OH; N-terminus assumed) as well.
OUTPUT: 1,62 DF/F0

INPUT: Try the compound CC(C)C[C@@H](NC(=O)[C@H](Cc1c[nH]cn1)NC(=O)[C@@H](N)CO)C(=O)NCC(=O)N[C@@H](CCC(N)=O)C(=O)N[C@@H](Cc1ccccc1)C(=O)N[C@H](Cc1c[nH]c2ccccc12)C(=O)N[C@@H](Cc1ccccc1)C(=O)N[C@H](CO)C(=O)O [compound 139] (H-SH[dL]GQF[dW]F[dS]-OH; N-terminus assumed)
OUTPUT: 1,55 DF/F0

INPUT: Now the same for C[C@H](N)C(=O)N[C@@H](Cc1ccccc1)C(=O)N[C@H](CO)C(=O)N[C@@H](CCC(N)=O)C(=O)N[C@@H](Cc1ccccc1)C(=O)N[C@H](CO)C(=O)N[C@@H](C)C(=O)N[C@@H](Cc1ccccc1)C(=O)N[C@H](CO)C(=O)O [compound 106] (H-AF[dS]QF[dS]AF[dS]-OH; N-terminus assumed)
OUTPUT: 1,53 DF/F0

INPUT: CC(C)C[C@H](NC(=O)[C@H](Cc1ccccc1)NC(=O)CNC(=O)[C@@H]1CCCN1C(=O)[C@H](CC(C)C)NC(=O)[C@@H](N)Cc1ccccc1)C(=O)N[C@@H](C)C(=O)N[C@@H](CC(C)C)C(=O)N1CCC[C@@H]1C(=O)O [compound 72] (H-FLPGFLAL[dP]-OH; N-terminus assumed) , same question.
OUTPUT: 0,64 DF/F0

INPUT: Now consider CC(C)C[C@H](NC(=O)[C@@H](N)Cc1ccccc1)C(=O)N1CCC[C@H]1C(=O)NCC(=O)N[C@@H](CCC(N)=O)C(=O)N[C@@H](Cc1ccccc1)C(=O)N[C@H](Cc1c[nH]c2ccccc12)C(=O)N[C@@H](Cc1ccccc1)C(=O)N[C@H](CO)C(=O)O [compound 89] (H-FLPGQF[dW]F[dS]-OH; N-terminus assumed) and answer again.
OUTPUT: 1,76 DF/F0

Provenance of the data: paper PMC3351444
